Entry source: PubChem BioAssay

Target: Torsin-1A (Homo sapiens)
Test: torsin A binders from cell lysate, primary screen, small-molecule microarray, wild-type, 635/667 nm (AID 1149)
Conditions: COS7 hTOR1A-WT lysate, 635 nm fluorescence, higher = more signal
Assignment: determine reported composite z-score for the given molecules.
The reply should be a number, written without any unit.

Tell me the measured composite z-score of CC(C)C(=C=CC[C@@H](O)c1ccc(OCCO)cc1)C[C@@H](O)COCc1ccccc1 , please.
-0.372

Tell me the measured composite z-score of CCCc1cc2c(n1Cc1cc(F)cc(F)c1)C(C)C1CN(C(=O)c3ccccc3)C(C)(C(=O)OC)C21 (centres undefined) , please.
0.361

Tell me the measured composite z-score of CN1C=C(C(=O)OCCS(C)(=O)=O)C(C(=O)OCCS(C)(=O)=O)=CC(c2ccc(CO)cc2)=CC1C1CC1 (centres undefined) , please.
0.738

Tell me the measured composite z-score of C=CCC(OC(C)=O)[C@@H]1[C@@H](N(Cc2cccc3ccccc23)C(=O)c2ccc(-c3ccccc3)cc2)c2cc(OCCCO)ccc2N1C(=O)c1ccc2ccccc2c1 (some centres undefined) , please.
-0.219

Tell me the measured composite z-score of CC(C)N1C(=O)c2ccccc2[C@](C)(C(=O)NCCN2CCOCC2)[C@@H]1c1ccc(CO)cc1 , please.
0.0436

Tell me the measured composite z-score of O=C1O[C@@H](c2ccccc2)[C@@H](c2ccccc2)N2[C@@H](c3ccccc3OCCO)[C@]3(C(=O)Nc4ccccc43)[C@@H](C(=O)Nc3nc4ccccc4s3)[C@H]12 , please.
0.469

Tell me the measured composite z-score of COC(=O)c1c(CC[C@@H](CO)NC(=O)NCCn2cc(C3(O)CCCC3)nn2)oc(C(C)=O)c1C(=O)OC , please.
-0.0395

Tell me the measured composite z-score of O=C1O[C@H](c2ccccc2)[C@H](c2ccccc2)N2[C@H]1[C@@H](C(=O)N1CCCCCCC1)[C@]1(C(=O)Nc3ccc(C#CC4=CCCCC4)cc31)[C@H]2c1ccc(OCCO)cc1 , please.
1.5

Tell me the measured composite z-score of O=C(CS)NCCCCCCNC(=O)[C@@H]1C[C@@H]2C(=O)N[C@@H](Cc3ccccc3)C(=O)N2[C@@H]1c1cccc(OCCO)c1 , please.
1.1

Tell me the measured composite z-score of C=C[C@@H](COC(=O)OC(C)(C)C)N(Cc1ccc(OC)cc1)S(=O)(=O)c1ccc(Br)cc1 , please.
0.604

Tell me the measured composite z-score of COCCOC(=O)N1C(=O)[C@@]2(c3cc(C#CC4(O)CCCCCC4)ccc31)[C@H](c1ccccc1OCCO)N1[C@H](c3ccccc3)[C@H](c3ccccc3)OC(=O)[C@H]1[C@@H]2C(=O)N1CCN(c2ncccn2)CC1 , please.
0.456

Tell me the measured composite z-score of C=C(C)[C@@H]1CC=C(C(O)C2C=CC3C(=O)N(c4ccccc4)C(=O)C3N2Nc2ccccc2)CC1 (some centres undefined) , please.
0.476

Tell me the measured composite z-score of COC(=O)[C@H](Cc1ccccc1)N[C@@H](/C=C/C1CC1)[C@H](O)Cc1ccccc1 , please.
0.324

Tell me the measured composite z-score of CCCC[C@@H]1C[C@H]1[C@@H](NC(=O)c1cccs1)c1ccc(-c2ccccc2)cc1 , please.
-0.473
